The reader will find reported MIC Range values listed item by item below.
system: C. auris Ca 1; experiment: MIC, CLSI M27 broth microdilution; type: cell-based, Candida auris; conditions: C. auris Ca 1; antifungal drugs
Provide the reading as a plain figure in µg/mL.

{"columns": ["sampleSmiles", "MIC Range (µg/mL)"],
 "data": [
  ["OC(Cn1cncn1)(Cn1cncn1)c1ccc(F)cc1F", 4]
]}

Kindly review the next compound as well.
The compound listed as CC[C@H](C)C[C@H](C)CCCCCCCCC(=O)N[C@H]1C[C@@H](O)[C@@H](NCCN)NC(=O)[C@@H]2[C@@H](O)CCN2C(=O)[C@H]([C@H](O)CCN)NC(=O)[C@H]([C@H](O)[C@@H](O)c2ccc(O)cc2)NC(=O)[C@@H]2C[C@@H](O)CN2C(=O)[C@H]([C@@H](C)O)NC1=O has a reported MIC Range of 0.5

###

The reader will find reported MIC values listed item by item below.
system: C. auris Ca 17; assay: MIC, CLSI M27 broth microdilution; type: cell-based, Candida auris; details: Candidozyma auris, CA17; C. auris Ca 17; geometric mean; antifungal drugs; read-out: MIC GM
Provide the reading as a plain figure in µg/mL.

{"columns": ["compound", "assayMetric", "measurementUnits", "numericValue"],
 "data": [
  ["CC[C@H](C)C[C@H](C)CCCCCCCCC(=O)N[C@H]1C[C@@H](O)[C@@H](NCCN)NC(=O)[C@@H]2[C@@H](O)CCN2C(=O)[C@H]([C@H](O)CCN)NC(=O)[C@H]([C@H](O)[C@@H](O)c2ccc(O)cc2)NC(=O)[C@@H]2C[C@@H](O)CN2C(=O)[C@H]([C@@H](C)O)NC1=O", "MIC", "µg/mL", 0.5],
  ["OC(Cn1cncn1)(Cn1cncn1)c1ccc(F)cc1F", "MIC", "µg/mL", 32],
  ["C[C@@H]1[C@H](O)[C@@H](C)/C=C/C=C/C=C/C=C/C=C/C=C/C=C/[C@H](O[C@@H]2O[C@H](C)[C@@H](O)[C@H](N)[C@@H]2O)C[C@@H]2O[C@](O)(C[C@@H](O)C[C@@H](O)[C@H](O)CC[C@@H](O)C[C@@H](O)CC(=O)O[C@H]1C)C[C@H](O)[C@H]2C(=O)O", "MIC", "µg/mL", 0.15]
]}

Kindly review the next compound as well.
The compound listed as CCC(C)n1ncn(-c2ccc(N3CCN(c4ccc(OCC5COC(Cn6cncn6)(c6ccc(Cl)cc6Cl)O5)cc4)CC3)cc2)c1=O (stereo not shown) has a reported MIC of 0.25

###

The reader will find reported MIC Range values listed item by item below.
test system: C. auris CDC B11903; assay: MIC, CLSI M27 broth microdilution; format: cell-based, Candida auris; settings: C. auris CDCB11903; antifungal drugs

Illustrative cases are given below, each with its answer.
{"columns": ["molecule", "MIC Range"],
 "data": [
  ["C[C@@H]1[C@H](O)[C@@H](C)/C=C/C=C/C=C/C=C/C=C/C=C/C=C/[C@H](O[C@@H]2O[C@H](C)[C@@H](O)[C@H](N)[C@@H]2O)C[C@@H]2O[C@](O)(C[C@@H](O)C[C@@H](O)[C@H](O)CC[C@@H](O)C[C@@H](O)CC(=O)O[C@H]1C)C[C@H](O)[C@H]2C(=O)O", "0.06 to 0.12 µg/mL"],
  ["CCC(C)n1ncn(-c2ccc(N3CCN(c4ccc(OCC5COC(Cn6cncn6)(c6ccc(Cl)cc6Cl)O5)cc4)CC3)cc2)c1=O (stereo not shown)", "0.06 to 0.12 µg/mL"],
  ["CC[C@H](C)C[C@H](C)CCCCCCCCC(=O)N[C@H]1C[C@@H](O)[C@@H](NCCN)NC(=O)[C@@H]2[C@@H](O)CCN2C(=O)[C@H]([C@H](O)CCN)NC(=O)[C@H]([C@H](O)[C@@H](O)c2ccc(O)cc2)NC(=O)[C@@H]2C[C@@H](O)CN2C(=O)[C@H]([C@@H](C)O)NC1=O", "0.5 µg/mL"]
]}

The molecule listed as OC(Cn1cncn1)(Cn1cncn1)c1ccc(F)cc1F has a reported MIC Range of 1 to 2 µg/mL

###

test system: C. auris Ca 41; experiment: MIC, CLSI M27 broth microdilution; format: cell-based, Candida auris; conditions: Candidozyma auris, CA41; C. auris Ca 41; geometric mean; antifungal drugs; read-out: MIC GM
assayMetric: MIC (µg/mL)
Provide the reading as a plain figure in µg/mL.

{"columns": ["compound", "assayMetric", "measurementUnits", "numericValue"],
 "data": [
  ["CC[C@H](C)C[C@H](C)CCCCCCCCC(=O)N[C@H]1C[C@@H](O)[C@@H](NCCN)NC(=O)[C@@H]2[C@@H](O)CCN2C(=O)[C@H]([C@H](O)CCN)NC(=O)[C@H]([C@H](O)[C@@H](O)c2ccc(O)cc2)NC(=O)[C@@H]2C[C@@H](O)CN2C(=O)[C@H]([C@@H](C)O)NC1=O", "MIC", "µg/mL", 0.5],
  ["C[C@@H]1[C@H](O)[C@@H](C)/C=C/C=C/C=C/C=C/C=C/C=C/C=C/[C@H](O[C@@H]2O[C@H](C)[C@@H](O)[C@H](N)[C@@H]2O)C[C@@H]2O[C@](O)(C[C@@H](O)C[C@@H](O)[C@H](O)CC[C@@H](O)C[C@@H](O)CC(=O)O[C@H]1C)C[C@H](O)[C@H]2C(=O)O", "MIC", "µg/mL", 1],
  ["CCC(C)n1ncn(-c2ccc(N3CCN(c4ccc(OCC5COC(Cn6cncn6)(c6ccc(Cl)cc6Cl)O5)cc4)CC3)cc2)c1=O (stereo not shown)", "MIC", "µg/mL", 0.06]
]}

Kindly review the next compound as well.
The compound listed as OC(Cn1cncn1)(Cn1cncn1)c1ccc(F)cc1F has a reported MIC of 2

###

test system: C. krusei ATCC 6258; test: MIC, CLSI M27 broth microdilution; type: cell-based, Candida krusei; settings: Pichia kudriavzevii, ATCC6258; C. krusei ATCC 6258; geometric mean; antifungal drugs; read-out: MIC GM
assayMetric: MIC (µg/mL)
Provide the reading as a plain figure in µg/mL.

Illustrative cases are given below, each with its answer.
{"columns": ["compound", "numericValue"],
 "data": [
  ["OC(Cn1cncn1)(Cn1cncn1)c1ccc(F)cc1F", 8],
  ["CCC(C)n1ncn(-c2ccc(N3CCN(c4ccc(OCC5COC(Cn6cncn6)(c6ccc(Cl)cc6Cl)O5)cc4)CC3)cc2)c1=O (stereo not shown)", 0.28],
  ["CC[C@H](C)C[C@H](C)CCCCCCCCC(=O)N[C@H]1C[C@@H](O)[C@@H](NCCN)NC(=O)[C@@H]2[C@@H](O)CCN2C(=O)[C@H]([C@H](O)CCN)NC(=O)[C@H]([C@H](O)[C@@H](O)c2ccc(O)cc2)NC(=O)[C@@H]2C[C@@H](O)CN2C(=O)[C@H]([C@@H](C)O)NC1=O", 1]
]}

Bench note, C. krusei ATCC 6258: entry C[C@@H]1[C@H](O)[C@@H](C)/C=C/C=C/C=C/C=C/C=C/C=C/C=C/[C@H](O[C@@H]2O[C@H](C)[C@@H](O)[C@H](N)[C@@H]2O)C[C@@H]2O[C@](O)(C[C@@H](O)C[C@@H](O)[C@H](O)CC[C@@H](O)C[C@@H](O)CC(=O)O[C@H]1C)C[C@H](O)[C@H]2C(=O)O , its MIC = 0.15

###

tested on: C. auris Ca 32; test: MIC, CLSI M27 broth microdilution; type: cell-based, Candida auris; conditions: Candidozyma auris, CA32; C. auris Ca 32; geometric mean; antifungal drugs; read-out: MIC GM
assayMetric: MIC (mg/L)
Provide the reading as a plain figure in mg/L.

The compound listed as CC[C@H](C)C[C@H](C)CCCCCCCCC(=O)N[C@H]1C[C@@H](O)[C@@H](NCCN)NC(=O)[C@@H]2[C@@H](O)CCN2C(=O)[C@H]([C@H](O)CCN)NC(=O)[C@H]([C@H](O)[C@@H](O)c2ccc(O)cc2)NC(=O)[C@@H]2C[C@@H](O)CN2C(=O)[C@H]([C@@H](C)O)NC1=O [CSF, caspofungin] has a reported MIC of 0.5

###

Quick note: these are MIC numbers for system: C. tropicalis ATCC 750
Provide the reading as a plain figure in µg/mL.

Illustrative cases are given below, each with its answer.
{"columns": ["compound", "assayMetric", "measurementUnits", "numericValue"],
 "data": [
  ["CC[C@H](C)C[C@H](C)CCCCCCCCC(=O)N[C@H]1C[C@@H](O)[C@@H](NCCN)NC(=O)[C@@H]2[C@@H](O)CCN2C(=O)[C@H]([C@H](O)CCN)NC(=O)[C@H]([C@H](O)[C@@H](O)c2ccc(O)cc2)NC(=O)[C@@H]2C[C@@H](O)CN2C(=O)[C@H]([C@@H](C)O)NC1=O", "MIC", "µg/mL", 0.35],
  ["OC(Cn1cncn1)(Cn1cncn1)c1ccc(F)cc1F", "MIC", "µg/mL", 1.4],
  ["C[C@@H]1[C@H](O)[C@@H](C)/C=C/C=C/C=C/C=C/C=C/C=C/C=C/[C@H](O[C@@H]2O[C@H](C)[C@@H](O)[C@H](N)[C@@H]2O)C[C@@H]2O[C@](O)(C[C@@H](O)C[C@@H](O)[C@H](O)CC[C@@H](O)C[C@@H](O)CC(=O)O[C@H]1C)C[C@H](O)[C@H]2C(=O)O", "MIC", "µg/mL", 0.11]
]}

Kindly review the next compound as well.
The compound listed as CCC(C)n1ncn(-c2ccc(N3CCN(c4ccc(OCC5COC(Cn6cncn6)(c6ccc(Cl)cc6Cl)O5)cc4)CC3)cc2)c1=O (stereo not shown) has a reported MIC of 0.12
